- target.entity: SMARCA4 (Homo sapiens)
- Construct: SMARCA2/SMARCA4 protein degradation selectivity in MV4-11 cells; endogenous in cells; host or cells: MV4-11
- Sequence (P51532 whole entry): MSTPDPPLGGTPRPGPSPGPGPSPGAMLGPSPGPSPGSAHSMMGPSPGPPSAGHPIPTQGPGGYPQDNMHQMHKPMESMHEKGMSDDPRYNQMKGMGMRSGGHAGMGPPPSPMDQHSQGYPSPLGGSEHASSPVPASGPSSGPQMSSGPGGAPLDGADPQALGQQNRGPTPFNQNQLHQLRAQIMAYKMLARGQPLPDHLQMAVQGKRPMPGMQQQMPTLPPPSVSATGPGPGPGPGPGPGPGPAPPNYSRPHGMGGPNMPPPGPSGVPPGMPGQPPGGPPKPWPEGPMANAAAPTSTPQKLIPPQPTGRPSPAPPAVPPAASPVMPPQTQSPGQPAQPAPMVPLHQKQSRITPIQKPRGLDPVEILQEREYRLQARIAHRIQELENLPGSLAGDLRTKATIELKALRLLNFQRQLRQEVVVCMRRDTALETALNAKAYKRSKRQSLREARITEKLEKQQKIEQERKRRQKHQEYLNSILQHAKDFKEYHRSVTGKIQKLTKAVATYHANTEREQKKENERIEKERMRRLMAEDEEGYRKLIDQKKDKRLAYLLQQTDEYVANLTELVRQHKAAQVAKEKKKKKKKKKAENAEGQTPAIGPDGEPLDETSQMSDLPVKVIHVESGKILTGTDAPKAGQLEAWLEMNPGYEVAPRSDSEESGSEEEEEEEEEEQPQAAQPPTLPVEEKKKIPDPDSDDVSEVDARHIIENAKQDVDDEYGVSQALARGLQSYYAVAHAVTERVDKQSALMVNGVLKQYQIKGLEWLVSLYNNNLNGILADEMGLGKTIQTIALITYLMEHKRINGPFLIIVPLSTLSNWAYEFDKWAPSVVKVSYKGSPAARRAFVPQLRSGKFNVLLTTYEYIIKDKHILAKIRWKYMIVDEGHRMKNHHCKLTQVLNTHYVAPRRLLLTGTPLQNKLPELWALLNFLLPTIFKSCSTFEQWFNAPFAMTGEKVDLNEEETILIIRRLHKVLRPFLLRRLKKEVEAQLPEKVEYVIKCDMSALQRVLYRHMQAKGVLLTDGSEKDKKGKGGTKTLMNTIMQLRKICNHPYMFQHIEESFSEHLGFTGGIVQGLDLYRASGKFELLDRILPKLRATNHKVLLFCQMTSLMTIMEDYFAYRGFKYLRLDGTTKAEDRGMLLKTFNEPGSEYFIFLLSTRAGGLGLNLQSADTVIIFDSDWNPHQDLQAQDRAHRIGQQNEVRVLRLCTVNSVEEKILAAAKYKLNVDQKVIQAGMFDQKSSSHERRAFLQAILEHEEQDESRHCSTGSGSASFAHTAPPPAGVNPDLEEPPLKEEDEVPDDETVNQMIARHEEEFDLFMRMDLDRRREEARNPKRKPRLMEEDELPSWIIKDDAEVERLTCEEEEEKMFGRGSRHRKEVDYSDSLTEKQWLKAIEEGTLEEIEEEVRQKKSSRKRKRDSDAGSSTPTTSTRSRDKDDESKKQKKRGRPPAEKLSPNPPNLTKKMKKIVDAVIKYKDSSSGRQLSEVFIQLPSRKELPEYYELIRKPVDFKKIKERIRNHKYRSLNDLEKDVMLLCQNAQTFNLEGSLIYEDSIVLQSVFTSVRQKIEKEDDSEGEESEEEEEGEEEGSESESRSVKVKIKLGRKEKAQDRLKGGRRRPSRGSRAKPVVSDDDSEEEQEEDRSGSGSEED
- protocol.text: SMARCA4 Western blot degradation in MV4-11 cells
- Type: cell-based
- condition.label: MV4-11, MV4-11 cells, 24 h; read-out: SMARCA4 MSD MV411 degradation 24 h: average Dmax %
Can you tell me Dmax for the items I'm about to list?

Query :: May I ask what Dmax has been recorded for Cc1ncsc1-c1ccc(CNC(=O)[C@@H]2C[C@@H](O)CN2C(=O)C(c2cc(OC[C@H]3CC[C@@H](N4CCC(c5cnc(N6CCc7[nH]c8nnc(-c9ccccc9O)cc8c7[C@H]6C)nc5)CC4)CC3)no2)C(C)C)cc1 (single isomer, unassigned) [I-2] ?
Result :: > 90%

Query :: Request the reported Dmax associated with C#Cc1ccc([C@H](C)NC(=O)[C@@H]2C[C@@H](O)CN2C(=O)[C@@H](NC(=O)N2CC3(CC(N4CCC(c5cnc(N6CCc7[nH]c8nnc(-c9ccccc9O)cc8c7[C@H]6C)nc5)CC4)C3)C2)C(C)(C)C)cc1 [I-151]
Result :: 50 to 70%

Query :: Please report the recorded Dmax for C#Cc1ccc(CNC(=O)[C@@H]2C[C@@H](O)CN2C(=O)[C@@H](NC(=O)N2CCN(Cc3ccc(-c4cnc(N5CCN6c7cc(-c8ccccc8O)nnc7NC[C@H]6C5)nc4)cc3)CC2)C(C)(C)C)cc1 [I-269] .
Result :: 50 to 70%

Query :: Need Dmax of C#Cc1ccc(CNC(=O)[C@@H]2C[C@@H](O)CN2C(=O)[C@@H](NC(=O)N2CC3(CC(c4cnc(N5CCC(N6CCN7c8cc(-c9ccccc9O)nnc8NC[C@H]7C6)CC5)nc4)C3)C2)C(C)(C)C)cc1 [I-276] , thanks.
Result :: > 90%

Query :: Could you share which Dmax value was measured for C#Cc1ccc(CNC(=O)[C@@H]2C[C@@H](O)CN2C(=O)[C@@H](NC(=O)[C@H]2CC3(C2)C[C@H](N2CCC(N4CCC(N5CCN6c7cc(-c8ccccc8O)nnc7NC[C@H]6C5)CC4)CC2)C3)C(C)(C)CCO)cc1 (single isomer, unassigned) [I-364] ?
Result :: < 50%

Query :: Any idea what its Dmax is? The molecule is C#Cc1ccc(CNC(=O)[C@@H]2C[C@@H](O)CN2C(=O)[C@@H](NC(=O)[C@H]2CC3(C2)C[C@H](N2CCC(N4CCC(N5CCN6c7cc(-c8ccccc8O)nnc7NC[C@H]6C5)CC4)CC2)C3)C(C)(C)C)c(O)c1 (single isomer, unassigned) [I-241]
Result :: 70 to 90%

Query :: Given the entry C#Cc1ccc(CNC(=O)[C@@H]2C[C@@H](O)CN2C(=O)[C@@H](NC(=O)N2CCN(C[C@H]3CC[C@@H](N4CCC(N5CCN6c7cc(-c8ccccc8O)nnc7NC[C@H]6C5)CC4)CC3)CC2)C(C)(C)C)cc1 [I-255] , report its measured Dmax.
Result :: < 50%

Query :: For the molecule C#Cc1ccc(CNC(=O)[C@@H]2C[C@@H](O)CN2C(=O)[C@@H](NC(=O)N2CCN(C[C@H]3CCN(c4cnc(N5CCc6[nH]c7nnc(-c8ccccc8O)cc7c6[C@H]5C)nc4)C3)CC2)C(C)(C)C)cc1 (single isomer, unassigned) [I-162] , what Dmax is on record?
Result :: 50 to 70%

Query :: Param item = C#Cc1ccc(CNC(=O)[C@@H]2C[C@@H](O)CN2C(=O)[C@@H](OC(=O)N2CC3(CC(N4CCC(c5cnc(N6CCc7[nH]c8nnc(-c9ccccc9O)cc8c7[C@H]6C)nc5)CC4)C3)C2)C(C)(C)C)cc1 [I-138] ; retrieve measured Dmax.
Result :: > 90%

Query :: Value lookup for Dmax; key = C#Cc1ccc(CNC(=O)[C@@H]2C[C@@H](O)CN2C(=O)[C@@H](NC(=O)N2CC3(CC(N4CCC(c5cnc(N6CCc7[nH]c8nnc(-c9ccccc9O)cc8c7[C@H]6C)nc5)CC4)C3)C2)C(C)(C)C)c(F)c1 [I-120]
Result :: 50 to 70%

Query :: // returns reported Dmax for input Cc1ncsc1-c1ccc(CNC(=O)[C@@H]2C[C@@H](O)CN2C(=O)[C@@H](NC(=O)C2(F)CC2)C(C)(C)C)c(OC2CN(CCN3CCC(c4cnc(N5CCc6[nH]c7nnc(-c8ccccc8O)cc7c6C5C)nc4)CC3)C2)c1 (stereo partly shown) [I-44]
Result :: 70 to 90%

Query :: Bench note: what Dmax did C#Cc1ccc(CNC(=O)[C@@H]2C[C@@H](O)CN2C(=O)[C@@H](NC(=O)[C@H]2CC3(C2)C[C@H](N2CCC(N4CCC(N5CCN6c7cc(-c8ccccc8O)nnc7NC[C@H]6C5)CC4)CC2)C3)C(C)(C)C)c(Cl)c1 (single isomer, unassigned) [I-229] show?
Result :: 50 to 70%

Query :: Fill in the blank: the reported Dmax of C#Cc1ccc(CNC(=O)[C@@H]2C[C@@H](O)CN2C(=O)[C@@H](NC(=O)[C@H]2CCC3(CC2)C[C@H](N2CCN(c4cnc(N5CCN6c7cc(-c8ccccc8O)nnc7NC[C@H]6C5)nc4)CC2)C3)C(C)(C)C)c(OC)c1 (single isomer, unassigned) [I-195] is ____.
Result :: 70 to 90%

Query :: So what's the measured Dmax for this one? C#Cc1ccc(CNC(=O)[C@@H]2C[C@@H](O)CN2C(=O)[C@@H](NC(=O)[C@H]2CC[C@H](CN3CCC(c4cnc(N5CCN6c7cc(-c8ccccc8O)nnc7NC[C@H]6C5)nc4)CC3)CC2)C(C)(C)C)cc1 [I-294]
Result :: 70 to 90%

Query :: Quick one: Dmax of Cc1ncsc1-c1ccc(CNC(=O)[C@@H]2C[C@@H](O)CN2C(=O)C(c2cc(OC[C@H]3CC[C@H](N4CCC(c5cnc(N6CCc7[nH]c8nnc(-c9ccccc9O)cc8c7[C@@H]6C)nc5)CC4)CC3)no2)C(C)C)cc1 (single isomer, unassigned) [I-15] ?
Result :: > 90%

Query :: I'd like to know its Dmax. The molecule in question is C#Cc1ccc(CNC(=O)[C@@H]2C[C@@H](O)CN2C(=O)[C@@H](NC(=O)C2CCC3(CC2)CC(N2CCC(N4CCC[C@H](C(=O)N5CCN6c7cc(-c8ccccc8O)nnc7NC[C@H]6C5)C4)CC2)C3)C(C)(C)C)cc1 (single isomer, unassigned) [I-90]
Result :: < 50%
